- Test system: A549/ATCC NSCLC
- protocol: NCI-60 one-dose screen, 48 h
- conditionInfo: 10 µM unless noted
About 83,000 compounds went through this panel and 20% of them were active in at least one assay; those are over-represented in the sample as a whole. The source made the active and inactive calls. The calls were made as follows: active = growth percent below 10; inactive = the rest.
// allowed return values: active, inactive

Worked examples, 4 compounds total:
Nc1ccc(-c2nn3c(CCC(=O)c4nc5ncccc5[nH]4)nnc3s2)c(O)c1
inactive
Cn1c(/C=C(\C#N)c2ccccc2)nc2c(N3CCOCC3)nc(Cl)nc21
inactive
CCN1C(=O)N(CC)C2C1NN=c1s/c(=C3\C(=O)N(C(C)C)c4ccccc43)c(=O)n12 (stereo unspecified)
inactive
CC(C)Cn1c2c(c(=S)[nH]c1=O)CCC2
inactive

Outcome? CC[C@@H](C)[C@H](NC(=O)Cn1cc(CNC(=O)[C@@H](NC(=O)OCc2ccccc2)C(C)C)nn1)C(=O)O inactive

Please answer likewise for CCN(CC)CCCNc1ccnc2cc3ccccc3cc12 inactive

Please answer likewise for O=C(CN1C=NC2C(N3CCOCC3)=NC=NC21)c1ccc(Br)cc1 (stereo unspecified) inactive

Please answer likewise for C#CCn1cc(C=C2C(=O)NC(=O)NC2=O)c2cc(Cl)ccc21 inactive

Please answer likewise for CC1=CCC(OC(=O)C(C)(C)CCC(O)(C(=O)OC2(C(C)C)CCC3(C)OC3C2)C(C)C)(C(C)C)CC1 (stereo unspecified) active

Please answer likewise for CCOC(=O)C1=C(C)c2ccc(OC)c(OC)c2C1 inactive

These measurements were taken from PubChem BioAssay (NCI).
